src = PubChem BioAssay AID2060489

System: 922993-354-T-J3-PDC complex spheroids, viability;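 also: spheroids exposed to compounds for seven days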
Test: Anticancer human tumor 922993-354-T-J3-PDC patient-derived endometrial carcinoma cell line growth inhibition [GQUAD]
Details: second compound 0.0316 µM; first compound 0.1 µM; hits give low values
Please note: viability, T/C exactly at 80% is False. Only values below 80% get True.

Solved cases below.
Determine if C=CC(=O)N1CCN(c2nc(=O)n(-c3c(C)ccnc3C(C)C)c3nc(-c4c(O)cccc4F)c(F)cc23)C(C)C1 (stereo not given) + CN(C)c1ccc(Nc2c3ccc(NC(=O)CCN4CCCC4)cc3nc3cc(NC(=O)CCN4CCCC4)ccc23)cc1 shows viability, T/C strictly lower than 80%. False

Do the same for C=CCn1c(=O)c2cnc(Nc3ccc(N4CCN(C)CC4)cc3)nc2n1-c1cccc(C(C)(C)O)n1 + Cc1[nH]c2ccc(F)cc2c1-c1nc2c3cccnc3c3ncccc3c2[nH]1 please False

Similarly, CCCS(=O)(=O)Nc1ccc(F)c(C(=O)c2c[nH]c3ncc(-c4ccc(Cl)cc4)cc23)c1F + Cc1cnc(CNC(=O)c2c(=O)c3ccc(N4CCCN(C)CC4)nc3n3c2sc2ccccc23)cn1 ? False

Next:
hey, is viability, T/C for CC1COCCN1c1cc(C2(O)CC3CCC(C2)O3)c2cnn(-c3ccn[nH]3)c2n1 (stereo not given) + Cc1cnc(CNC(=O)c2c(=O)c3ccc(N4CCCN(C)CC4)nc3n3c2sc2ccccc23)cn1 lower than 80% or not? True

What about this molecule? O=C(NO)c1cnc(N2CCN(S(=O)(=O)c3ccc4ccccc4c3)CC2)nc1 + Cc1cnc(CNC(=O)c2c(=O)c3ccc(N4CCCN(C)CC4)nc3n3c2sc2ccccc23)cn1 False

Subsequent entry: Nc1ccn(C2OC(CO)C(O)C2(F)F)c(=O)n1 (stereo not given) + Cc1cnc(CNC(=O)c2c(=O)c3ccc(N4CCCN(C)CC4)nc3n3c2sc2ccccc23)cn1 True

Please answer likewise for COc1ncnc(C2CC2)c1-c1ncc2cnn(Cc3ccc(-c4nc(C(F)(F)F)cn4C(C)C)cc3)c2n1 + CN(C)c1ccc(Nc2c3ccc(NC(=O)CCN4CCCC4)cc3nc3cc(NC(=O)CCN4CCCC4)ccc23)cc1 False

What do you get for Nc1ccn(C2OC(CO)C(O)C2(F)F)c(=O)n1 (stereo not given) + CN(C)c1ccc(Nc2c3ccc(NC(=O)CCN4CCCC4)cc3nc3cc(NC(=O)CCN4CCCC4)ccc23)cc1 ? True
